experimental.target: T1, soluble extracellular domain of human PD-1 (human, UniProt Q15116 25-170)
T1 construct: extracellular domain
T1 sequence (Q15116 25-170): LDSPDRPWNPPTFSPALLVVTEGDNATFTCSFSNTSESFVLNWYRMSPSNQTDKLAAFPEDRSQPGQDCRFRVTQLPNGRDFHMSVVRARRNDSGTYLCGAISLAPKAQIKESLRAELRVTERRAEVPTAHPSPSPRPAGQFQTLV
assay.name: BLI (ForteBio Octet Red), antibody on the biosensor, soluble PD-1 ECD as analyte
measured.property: Kd (nM)
Provide the reading as a plain figure in nM.

[in] Using the record for 100244_C8VH3_100245_C8VK5 (antibody, V domains shown, Mouse variable regions; cloned into pFUSE-CHIg-mG1 (murine IgG1 Fc), expressed in HEK293) VH: EVQLQESGPELVRPGASVKMSCKASGYTFTSYWMHWVKQRPGQGLEWIGMIDPSNSETSLNQKFKDKATLNVDKSTNTAYMQLSSLTSEDSAVYYCARSRGNYAYEMDYWGQGTSVTVSS VL: DIVITQTTAIMSASPGEKVTLTCSASSSVSSNYLYWYQQRPGSSPKLWIYSTSNLASGVPARFSGSGSGTSYSLTISSMEAEDAASYFCHQWSSYPPTFGSGTKLEIK , state its measured Kd.
[out] 15.1
